Data credit: PubChem BioAssay AID624410

# SYSTEM_NAME: Orexin/Hypocretin receptor type 1 (Homo sapiens) (UniProt O43613)
# Sequence (O43613 whole entry, looked up): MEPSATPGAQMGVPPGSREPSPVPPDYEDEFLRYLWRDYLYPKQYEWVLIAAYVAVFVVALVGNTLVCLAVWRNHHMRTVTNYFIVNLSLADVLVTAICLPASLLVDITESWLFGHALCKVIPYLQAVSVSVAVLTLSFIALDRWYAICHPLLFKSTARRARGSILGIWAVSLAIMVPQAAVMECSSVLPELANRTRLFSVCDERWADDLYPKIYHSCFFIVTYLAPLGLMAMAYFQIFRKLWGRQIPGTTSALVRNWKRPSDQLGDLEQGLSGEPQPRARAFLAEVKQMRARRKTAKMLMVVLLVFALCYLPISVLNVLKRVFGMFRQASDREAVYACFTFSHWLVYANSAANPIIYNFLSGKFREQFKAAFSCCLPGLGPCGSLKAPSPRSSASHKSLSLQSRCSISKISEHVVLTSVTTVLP
# EXPERIMENT_SUMMARY: OX1R antagonist potency, HTRF readout, late-stage follow-up, OX1R antagonist probe project, cell-based (AID 624410)
# CONDITION_DETAILS: OX1R-expressing cells, HTRF antagonist assay
Activity calls are given as the source filed them. The rule behind the calls is not given here.
Pick one: active, inactive

Fc1cccc(Nc2nc3ccccc3n3cnnc23)c1    active
CSc1cccc(N2CC(C(=O)NCCN3C(=O)S/C(=C\c4cccnc4)C3=O)CC2=O)c1 (stereo not given)    active
Cc1cc(Cl)ccc1OCCCC(=O)NCCN1C(=O)S/C(=C\c2cccnc2)C1=O    active
CCn1c(SCC(=O)Nc2ccc3c(c2)c2ccccc2n3CC)nnc1-c1cnccn1    active
COCCCNC(=O)CCC(=O)NNc1nc2ccccc2c2nc(-c3ccccc3)nn12    active
Cc1c(NS(=O)(=O)c2cccc(C(=O)OCC(=O)N(C)C3CCCCC3)c2)c(=O)n(-c2ccccc2)n1C    active
CC(=C/c1ccccc1)/C=C1/SC(N2CCOCC2)=NC1=O    active
CCOC(=O)N1CCN(C(=O)CSc2ccc(-c3ccccc3)nn2)CC1    inactive

Lab log entry: "CCc1cc(C(=O)OCC(=O)N2CCC(c3ccccc3)=N2)sc1C" — outcome as called in the assay?
active

Lab log entry: COc1cccc(/C=C2/Oc3ccccc3N(CC(=O)NCC3CCCO3)C2=O)c1 (stereo not given) — outcome as called in the assay?
active

Lab log entry: "Cc1cccc(NC(=O)[C@@H]2CCCN2S(=O)(=O)c2ccc(Cl)cc2)c1" — outcome as called in the assay?
active

Lab log entry: "CCc1cc2c(SCC(=O)N(CC)c3c(N)n(Cc4ccccc4)c(=O)[nH]c3=O)ncnc2s1" — outcome as called in the assay?
active

Lab log entry: "COc1cc(OC)c(-c2nc3ccccc3s2)cc1OC" — outcome as called in the assay?
active

Lab log entry: "Cc1cccc(C=NNC(=O)c2cc3c(s2)-c2ccccc2CC3)c1" — outcome as called in the assay?
active

Lab log entry: CSc1cccc(NC(=O)C2CCCN2S(=O)(=O)c2ccc(Br)s2)c1 (stereo not given) — outcome as called in the assay?
active

Lab log entry: "Cc1noc(C)c1COc1ccc(C(=O)OCC(=O)N2CC(=O)Nc3ccccc32)cc1" — outcome as called in the assay?
inactive

Lab log entry: CCSC1=C(C#N)C(c2ccccc2Cl)C(C(=O)c2cccs2)C(O)(C(F)(F)F)N1 (stereo not given) — outcome as called in the assay?
active

Lab log entry: "CCOc1ccccc1C(=O)Nc1ccc2nc3n(c(=O)c2c1)CCCCC3" — outcome as called in the assay?
active

Lab log entry: CCN(CC)c1ccc(NC(=O)Cn2c(C(C)NC(=O)c3ccccc3)nc3ccccc32)cc1 (stereo not given) — outcome as called in the assay?
active

Lab log entry: "O=C(CSc1ccc(-c2ccccc2)nn1)c1cccs1" — outcome as called in the assay?
active

Lab log entry: O=c1cc(CN2CC(O)Cc3ccc4ccccc4c32)nc2sccn12 (stereo not given) — outcome as called in the assay?
inactive

Lab log entry: O=C(CN1C(=O)/C(=C\c2cccc(Br)c2)Oc2ccccc21)NCC1CCCO1 (stereo not given) — outcome as called in the assay?
active

Lab log entry: COc1ccc(OC)c(S(=O)(=O)NCC(c2ccco2)N2CCc3ccccc32)c1 (stereo not given) — outcome as called in the assay?
active

Lab log entry: Cc1ccccc1NC(=O)C1CCCN1S(=O)(=O)c1ccccc1C(F)(F)F (stereo not given) — outcome as called in the assay?
active

Lab log entry: "Cc1ccc(-c2csc3nnc(SCC(=O)Nc4nsc(-c5ccccc5)n4)n23)cc1" — outcome as called in the assay?
active
